- System: normal diploid fibroblast (PDL22-32 cells)
- assay_method_text: Test 2-2: fibroblast apoptosis caused by CML-collagen (Caspase Assay), extracts and substances
- Type: cell-based, human
- condition_notes: 3 μg/mL
Assign Inhibition Ratio (%) of fibroblast apoptosis (Caspase Assay) to each entry below.
One number for each entry, in %.

Go through the list and state Inhibition Ratio (%) of fibroblast apoptosis (Caspase Assay) for each entry.
1. O=C(O)CC(=O)OCC1O[C@@H](Oc2c(-c3ccc(O)cc3)oc3cc(O)cc(O)c3c2=O)C(O)C(O)[C@@H]1O (stereo partly shown)
2. O=C(/C=C/c1ccc(O)c(O)c1)O[C@@H]1OC(CO)[C@@H](O)C(O)C1O (stereo partly drawn) [1-O-(E)-Caffeoyl-β-D-glucopyranoside]
3. O=C(/C=C/c1ccc(O)cc1)O[C@@H]1OC(CO)[C@@H](O)C(O)C1O (stereo partly drawn) [1-O-(E)-Coumaroyl-β-D-glucopyranoside]
4. O=c1c(O[C@@H]2O[C@H](CO)[C@@H](O)[C@H](O)[C@H]2O)c(-c2ccc(O)cc2)oc2cc(O)cc(O)c12 [Kaempferol 3-O-β-D-glucopyranoside]
5. O=C(O)CC(=O)OCC1O[C@@H](Oc2c(-c3ccc(O)c(O)c3)oc3cc(O)cc(O)c3c2=O)C(O)C(O)[C@@H]1O (stereo partly shown)

["−17.3", 37.6, 7.1, 27.9, 36.6]

Noted Inhibition Ratio (%) of fibroblast apoptosis (Caspase Assay) for O=C(/C=C/c1ccccc1)O[C@@H]1OC(CO)[C@@H](O)C(O)C1O (stereo partly drawn) [1-O-(E)-Cinnamoyl-β-D-glucopyranoside] , tested on normal diploid fibroblast (PDL22-32 cells): 19.7
